Hey, just so you know, these numbers are from patent US20220073608A1.

Recorded OD450 nm, one value per entry.
Target: T1, hSEMA4D ECD-His (His-tagged human SEMA4D protein extracellular domain, Met22-Arg734) (human, UniProt Q92854 22-734)
T1 construct: Expressed in CHO-S cells, purified on Ni column; also called protein immunogen; immunogen A; not shown: His tag of the pCP vector
T1 sequence: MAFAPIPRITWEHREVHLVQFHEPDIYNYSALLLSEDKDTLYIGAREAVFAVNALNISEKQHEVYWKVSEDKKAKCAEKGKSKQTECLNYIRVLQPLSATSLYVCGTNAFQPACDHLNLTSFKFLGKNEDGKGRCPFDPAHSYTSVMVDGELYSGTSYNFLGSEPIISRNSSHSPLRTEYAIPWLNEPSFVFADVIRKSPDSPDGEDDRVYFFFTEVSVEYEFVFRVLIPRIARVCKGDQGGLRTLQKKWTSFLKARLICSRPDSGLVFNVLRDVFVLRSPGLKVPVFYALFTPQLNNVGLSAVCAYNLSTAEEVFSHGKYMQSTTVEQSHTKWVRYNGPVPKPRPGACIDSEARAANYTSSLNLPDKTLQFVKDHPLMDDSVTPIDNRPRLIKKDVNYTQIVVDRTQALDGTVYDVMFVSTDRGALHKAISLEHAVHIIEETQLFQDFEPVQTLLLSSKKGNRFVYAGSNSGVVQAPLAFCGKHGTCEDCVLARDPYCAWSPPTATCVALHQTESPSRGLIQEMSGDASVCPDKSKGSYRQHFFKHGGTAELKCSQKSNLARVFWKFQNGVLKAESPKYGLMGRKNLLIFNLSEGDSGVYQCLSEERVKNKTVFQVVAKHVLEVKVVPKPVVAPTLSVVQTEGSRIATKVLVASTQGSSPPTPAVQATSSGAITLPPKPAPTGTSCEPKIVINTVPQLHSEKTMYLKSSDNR
Assay: ELISA, coated hSEMA4D ECD-His; Ab 0.00427 nM
// response body must contain only the number

Binder: 37C4F7 (antibody, V domains shown, Mouse monoclonal antibody purified from hybridoma supernatant on protein A) VH: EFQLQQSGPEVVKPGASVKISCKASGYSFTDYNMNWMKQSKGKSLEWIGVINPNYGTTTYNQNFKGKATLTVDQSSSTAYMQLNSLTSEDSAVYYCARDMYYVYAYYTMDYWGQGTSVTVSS VL: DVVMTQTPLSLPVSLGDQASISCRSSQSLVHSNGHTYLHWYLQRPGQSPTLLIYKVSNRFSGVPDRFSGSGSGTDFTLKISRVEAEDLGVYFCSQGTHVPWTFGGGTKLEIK
Quantity: OD450 nm
Result: 0.0623

Binder: 31C11G2 (antibody, V domains shown, Mouse monoclonal antibody purified from hybridoma supernatant on protein A) VH: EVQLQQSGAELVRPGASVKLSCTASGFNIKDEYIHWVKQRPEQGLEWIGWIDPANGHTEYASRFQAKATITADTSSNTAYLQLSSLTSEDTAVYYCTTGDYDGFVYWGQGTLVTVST VL: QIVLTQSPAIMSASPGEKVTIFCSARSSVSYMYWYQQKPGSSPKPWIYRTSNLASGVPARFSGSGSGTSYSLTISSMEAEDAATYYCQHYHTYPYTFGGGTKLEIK
Quantity: OD450 nm
Result: 0.0939

Binder: 32C8F10 (antibody, V domains shown, Mouse monoclonal antibody purified from hybridoma supernatant on protein A) VH: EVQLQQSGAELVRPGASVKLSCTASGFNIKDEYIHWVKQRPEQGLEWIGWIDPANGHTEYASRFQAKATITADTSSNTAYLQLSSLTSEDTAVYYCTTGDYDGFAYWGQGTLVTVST VL: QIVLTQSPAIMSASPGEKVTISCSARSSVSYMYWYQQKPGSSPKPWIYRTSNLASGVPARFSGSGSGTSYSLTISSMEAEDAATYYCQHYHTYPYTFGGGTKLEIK
Quantity: OD450 nm
Result: 0.0685

Let us move to another entry and its OD450 nm.
Request: Could you share which OD450 nm value was measured for 38H2E3 (antibody, V domains shown, Mouse monoclonal antibody purified from hybridoma supernatant on protein A) VH: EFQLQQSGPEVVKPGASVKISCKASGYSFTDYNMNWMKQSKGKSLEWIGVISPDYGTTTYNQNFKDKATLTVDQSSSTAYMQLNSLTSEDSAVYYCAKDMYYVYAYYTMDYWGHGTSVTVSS VL: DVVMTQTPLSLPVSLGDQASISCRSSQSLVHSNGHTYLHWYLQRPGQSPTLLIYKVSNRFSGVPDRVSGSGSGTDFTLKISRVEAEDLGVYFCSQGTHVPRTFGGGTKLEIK ?
Result: 0.0744
